Attribution: ChEMBL document CHEMBL1201862

System: SNB-75
Assay: NCI tumour cell line growth inhibition, 48 h
The source made the active and inactive calls. Rule as the data show it: active = GI50 up to about 1.1 µM and inactive = higher.
Lab note: assign the record to one of 1 (active), -1 (inactive)

Example cases with answers are listed next.
C=CC(C)(C)C(=C)C(=O)Nc1ccccc1I : -1
O=C(/C=C\c1ccccc1O)c1ccc(O)cc1O : 1
Cc1cccc(NC(=O)CC(=O)N2N=C(N3c4ccccc4Sc4ccccc43)CC2c2ccccc2)c1 (stereo unspecified) : -1
Cn1c(N=P(c2ccccc2)(c2ccccc2)c2ccccc2)c([N+](=O)[O-])c(=O)n(C)c1=O : -1
CC(C)(C)OC(=O)NC(Cc1ccc(OC(C)(C)C)cc1)C(=O)N[C@H]1CCC[C@H]1C(=O)NC(Cc1ccccc1)C(=O)N1CCCC1C(N)=O (stereo partly specified) : -1
COc1ccc(/C=C/c2cc(OC)c(OC(C)=O)c(OC)c2)cc1 : -1
N=C(N)SCCSC(=N)N : -1
Cc1[nH]c2ccccc2c1/C=N/c1ccc(/N=C/c2c(C)[nH]c3ccccc23)cc1 : -1
CN(C)CCNc1nc2ccccc2c2c1C(=O)c1ccccc1-2 : 1
CC1(C)N=c2c(ncn2CCCO)=C(C(N)=O)N1 : -1

Here is another compound to look at.
Q: Hi, do you know how CC(C)N1CCN(c2ccc(OCC3COC(Cn4cncn4)(c4ccc(Cl)cc4Cl)O3)cc2)CC1 (stereo unspecified) came out in this test?
Result: -1

----------
System: CAKI-1
Assay: NCI tumour cell line growth inhibition, 48 h
Active and inactive are the calls of the source. No stated cut-off is given here; in the data, active = GI50 up to about 1.1 µM and inactive = higher.
readout-type: GI50

Record excerpt, results attached:
CCOC(=O)C12CCCC1(O)N(NC(=O)OC(C)(C)C)C(C)=C2C(=O)OC (configuration not stated) : > 100 µM (inactive)
CCOC(=O)c1c(/C=N\Nc2ccccc2)nc2ccccc2c1-c1ccccc1 : 68.9 µM (inactive)
COc1cc2c(cc1OC)CCc1cc(OC)c(OC)cc1CC2 : > 100 µM (inactive)
Nc1nncc2c1c(Br)cn2C1OC(CO)C(O)C1O (configuration not stated) : 3.21 µM (inactive)
N#CCc1ccc(C(C#N)/C(CCCC(=O)Nc2cccc([N+](=O)[O-])c2)=N\NC(=O)NN)cc1 (configuration not stated) : > 100 µM (inactive)

The measured GI50 that CC(C)(C)OC(=O)NC(C)(C)C(=O)NCCC(=O)O showed for CAKI-1 is > 100 µM (inactive)

The measured GI50 that COC(OC)[C@@H]1OC[C@H](n2cnc3c(N)ncnc32)[C@H]1O showed for CAKI-1 is > 100 µM (inactive)

The measured GI50 that O=C(CC1(O)C(=O)Nc2c(Cl)ccc(Cl)c21)c1ccc(Cl)cc1 (configuration not stated) showed for CAKI-1 is 51.1 µM (inactive)

----------
Catalogue of GI50 values
System: NCI-H226
Test: NCI tumour cell line growth inhibition, 48 h
The source made the active and inactive calls. Cut-off read from the data, not from the text of the source: active = GI50 up to about 1.1 µM and inactive = higher.

OCc1cccc(Nc2nc(O)c3[nH]cnc3n2)c1 : > 100 µM (inactive)
COC(=O)[C@@H]1C(=O)O[C@@H](c2cc(OC)c(OC)cc2OC)[C@@H]1C(=O)OC.COC(=O)[C@H]1C(=O)O[C@@H](c2cc(OC)c(OC)cc2OC)[C@@H]1C(=O)OC : > 100 µM (inactive)
O=C(O)Cc1ccc([N+](=O)[O-])cc1[N+](=O)[O-] : > 100 µM (inactive)
CC1=NN(c2nc(N)nc(CO)n2)C(C)(C)C1 : > 100 µM (inactive)

Now for a further compound.
Record O=C1C=C(Nc2cccnc2)c2ccccc2C1=O , field GI50: 25.6 µM (inactive)

----------
System: BT-549
Experiment: NCI tumour cell line growth inhibition, 48 h
Activity calls are given as the source filed them. Rule as the data show it: active = GI50 up to about 1.1 µM and inactive = higher.
Catalogue of GI50 values

Record excerpt, results attached:
CC(C)OC(=O)c1ccc(CCC2=CC(=O)C(Br)=CC2=O)cc1 : 5.27 µM (inactive)
Cc1ncc([N+](=O)[O-])n1CCNC(=O)CCCCCn1ccnc1[N+](=O)[O-] : > 100 µM (inactive)
CCOc1c(OC)cc(-c2nc3n(n2)C(=O)C(CC)S3)cc1OC (stereo not given) : > 10 µM (inactive)
CC[C@]1(O)CC(OC2CC(N(C)C)C(O)C(C)O2)c2c(cc3c(c2O)C(=O)c2c(O)cccc2C3=O)[C@@H]1C(=O)OC (stereo not given in full) : 1.16 µM (inactive)
CN1N(c2ccccc2)C(=O)C2=NC=C(C#N)C(=N)C21C (stereo not given) : > 100 µM (inactive)
Clc1nc(-[n+]2ccc(-c3ccncc3)cc2)nc(Nc2ccccc2)c1Cl : > 100 µM (inactive)
N=c1oc2ccccc2cc1C(=O)Nc1cccc2ccccc12 : > 100 µM (inactive)
CCSC1=CC2(O)N(CCc3ccc(OC)c(OC)c3)C(=O)CC2(C(=O)OC)CC1=O (stereo not given) : 18.4 µM (inactive)
COC(=O)c1cc(C#N)[nH]c1-c1ccc(Br)s1 : 10.9 µM (inactive)

Now for a further compound.
Record COc1cc(C2S/C(=C/c3ccccc3)C(=O)N2c2ccccc2Cl)cc(OC)c1OC (stereo not given) , field GI50: 29.3 µM (inactive)

----------
System: OVCAR-3
Experiment: NCI tumour cell line growth inhibition, 48 h
Calls of active or inactive are those of the source. Cut-off read from the data, not from the text of the source: active = GI50 up to about 1.1 µM and inactive = higher.
Catalogue of GI50 values

Record excerpt, results attached:
Cc1ccc(S(=O)(=O)OCCN(CCOS(=O)(=O)c2ccc(C)cc2)c2ccc(C=O)cc2)cc1 : 23.7 µM (inactive)
Brc1ccccc1/C=N\C12CC3CC(CC(C3)C1)C2 : 23.8 µM (inactive)
COc1ccc(/C(Cl)=C(\C#N)c2ccc(OC)c(OC)c2)cc1OC : 63.1 µM (inactive)
O=[N+]([O-])c1cccc(/C=N/C23CC4CC(CC(C4)C2)C3)c1 : > 100 µM (inactive)

Now for a further molecule.
Record O=C1/C(=C/c2cccc(Br)c2)CSC/C1=C\c1cccc(Br)c1 , field GI50: 3.38 µM (inactive)

----------
System: 786-0
Assay: NCI tumour cell line growth inhibition, 48 h
The source made the active and inactive calls. Rule as the data show it: active = GI50 up to about 1.1 µM and inactive = higher.
Catalogue of GI50 values

COc1cc(/C=C/c2nc(NC(=S)Nc3ccccc3)nnc2C)cc(OC)c1OC : 28.3 µM (inactive)
COc1cc(C(c2c(O)c3ccccc3oc2=O)c2c(O)c3ccccc3oc2=O)cc(Br)c1O : 17.7 µM (inactive)
COC(=O)C1=Nc2c(C)nn(-c3ccccc3)c2N=C(c2ccccc2)C1 : > 10 µM (inactive)
CN(CC(=O)O)CC(=O)O : > 100 µM (inactive)
Clc1ccc(-c2ccc(-c3nnc(CCc4nnc(-c5ccc(-c6ccc(Cl)cc6)o5)o4)o3)o2)cc1 : > 43.3 µM (inactive)
COc1cc2c(cc1O)NC(=O)[C@@H]1CCCN1C2=O : > 100 µM (inactive)
N#CCCN(c1ccc(/C=C2\N=C(c3ccc(Cl)cc3)OC2=O)cc1)S(=O)(=O)c1ccccc1 : > 100 µM (inactive)
Cc1cc2c(c(=O)n1C)SCC2 : > 100 µM (inactive)

The measured GI50 that Fc1ccc(C(OCCN2CC3CCC(C2)N3CCCc2ccccc2)c2ccc(F)cc2)cc1 showed for 786-0 is 3.62 µM (inactive)

The measured GI50 that C1=N\CCN2CCN(CC/N=C\c3ccccc3OCc3cccc(n3)COc3ccccc3/1)CC2 showed for 786-0 is 5.13 µM (inactive)

----------
Test system: OVCAR-5
Test: NCI tumour cell line growth inhibition, 48 h
Calls of active or inactive are those of the source. Cut-off read from the data, not from the text of the source: active = GI50 up to about 1.1 µM and inactive = higher.
Catalogue of GI50 values

Record excerpt, results attached:
Cc1cc(C)nc(NS(=O)(=O)c2ccc(Nc3c4ccccc4nc4c(C(=O)NCCN(C)C)cccc34)cc2)n1 : 12.8 µM (inactive)
CCON1CC(C(=O)OC)=C(O)C1=O : > 100 µM (inactive)

Record COc1ccccc1C(=O)c1c(N2CCCCC2)c(=O)c1=O , field GI50: > 100 µM (inactive)

----------
Tested on: UACC-257
Assay: NCI tumour cell line growth inhibition, 48 h
The source made the active and inactive calls. Cut-off read from the data, not from the text of the source: active = GI50 up to about 1.1 µM and inactive = higher.
readout-type: GI50

Record excerpt, results attached:
Cc1cccc(NC(=O)CSc2nnc(Cc3ccccc3)o2)c1 : > 100 µM (inactive)
N#Cc1nc(C2OC(COC(=O)c3ccccc3)C(OC(=O)c3ccccc3)C2OC(=O)c2ccccc2)oc1N (centres undefined) : 20.7 µM (inactive)
COc1ccc(NC(=O)CC2S/C(=N\c3ccccc3C)NC2=O)c([N+](=O)[O-])c1 (centres undefined) : > 100 µM (inactive)

Record O=c1ccc2ccc(CBr)cc2o1 , field GI50: 11.7 µM (inactive)

Record CC(=O)Oc1ccc2c3c1[C@H]1O[C@H]1c1cccc(c1-3)[C@@H]1O[C@H]21 , field GI50: 8.22 µM (inactive)

Record CCCC[C@@H]1CCN2C[C@@H](O)[C@@H](O)[C@H]2[C@@H]1O , field GI50: > 100 µM (inactive)

Record Cc1ccc2c(c1)SC(c1cc3c(cc1Br)OCO3)S2 (centres undefined) , field GI50: > 31.6 µM (inactive)

Record CCSC1=CC2(O)N(CCc3ccc(OC)c(OC)c3)C(=O)CC2(C(=O)OC)CC1=O (centres undefined) , field GI50: 17.9 µM (inactive)

Record O=c1c2ccccc2[nH]c(=S)n1-c1ccc(Br)cc1 , field GI50: > 100 µM (inactive)
